measured-target: the molecule itself
assay: PELDOR (pulsed EPR, DEER); MTSSL-labelled protein, 100 to 200 uM MuRF1 dimer, deuterated Hepes pH 8.0/NaCl buffer mixed 1:1 with D8-glycerol, flash frozen; Q-band, 50 K; distances between labels across the protomers of the dimer
measured-attribute: binding result

Recorded binding result (protein MuRF1-HD R320C (cysteine-null background), MTSSL-labelled (domain or fragment, UniProt Q969Q1 155-328, looked up, MTSSL spin label (R1) on cysteine 320, MuRF1 (TRIM63) helical domain, residues 155-328 of UniProtKB Q969Q1; also called R320R1; E320R1 (as printed once); not shown: His6, N-terminal, cleaved; SUMO, N-terminal, cleaved) EVAPLQSVFQGQKTELNNSISMLVAGNDRVQTIITQLEDSRRVTKENSHQVKEELSQKFDTLYAILDEKKSELLQRITQEQEKKLSFIEALIQQYQEQLDKSTKLVETAIQSLDEPGGATFLLTAKQLIKSIVEASKGSQLGKTEQGFENMDFFTLDLEHIADALCAIDFGTDE ): binds

Recorded binding result (protein MuRF1-HD E200C (cysteine-null background), MTSSL-labelled (domain or fragment, UniProt Q969Q1 155-328, looked up, MTSSL spin label (R1) on cysteine 200, MuRF1 (TRIM63) helical domain, residues 155-328 of UniProtKB Q969Q1; also called E200R1; not shown: His6, N-terminal, cleaved; SUMO, N-terminal, cleaved) EVAPLQSVFQGQKTELNNSISMLVAGNDRVQTIITQLEDSRRVTKCNSHQVKEELSQKFDTLYAILDEKKSELLQRITQEQEKKLSFIEALIQQYQEQLDKSTKLVETAIQSLDEPGGATFLLTAKQLIKSIVEASKGSQLGKTEQGFENMDFFTLDLEHIADALRAIDFGTDE ): binds
